ASSAYED_SYSTEM: OA-519 fatty acid synthase (Homo sapiens, UniProt P49327)
Construct: endogenous in cells; host or cells: ZR-75-1 breast carcinoma cell line (protein purified from the lysate)
Sequence (P49327 2-2511 limits assumed): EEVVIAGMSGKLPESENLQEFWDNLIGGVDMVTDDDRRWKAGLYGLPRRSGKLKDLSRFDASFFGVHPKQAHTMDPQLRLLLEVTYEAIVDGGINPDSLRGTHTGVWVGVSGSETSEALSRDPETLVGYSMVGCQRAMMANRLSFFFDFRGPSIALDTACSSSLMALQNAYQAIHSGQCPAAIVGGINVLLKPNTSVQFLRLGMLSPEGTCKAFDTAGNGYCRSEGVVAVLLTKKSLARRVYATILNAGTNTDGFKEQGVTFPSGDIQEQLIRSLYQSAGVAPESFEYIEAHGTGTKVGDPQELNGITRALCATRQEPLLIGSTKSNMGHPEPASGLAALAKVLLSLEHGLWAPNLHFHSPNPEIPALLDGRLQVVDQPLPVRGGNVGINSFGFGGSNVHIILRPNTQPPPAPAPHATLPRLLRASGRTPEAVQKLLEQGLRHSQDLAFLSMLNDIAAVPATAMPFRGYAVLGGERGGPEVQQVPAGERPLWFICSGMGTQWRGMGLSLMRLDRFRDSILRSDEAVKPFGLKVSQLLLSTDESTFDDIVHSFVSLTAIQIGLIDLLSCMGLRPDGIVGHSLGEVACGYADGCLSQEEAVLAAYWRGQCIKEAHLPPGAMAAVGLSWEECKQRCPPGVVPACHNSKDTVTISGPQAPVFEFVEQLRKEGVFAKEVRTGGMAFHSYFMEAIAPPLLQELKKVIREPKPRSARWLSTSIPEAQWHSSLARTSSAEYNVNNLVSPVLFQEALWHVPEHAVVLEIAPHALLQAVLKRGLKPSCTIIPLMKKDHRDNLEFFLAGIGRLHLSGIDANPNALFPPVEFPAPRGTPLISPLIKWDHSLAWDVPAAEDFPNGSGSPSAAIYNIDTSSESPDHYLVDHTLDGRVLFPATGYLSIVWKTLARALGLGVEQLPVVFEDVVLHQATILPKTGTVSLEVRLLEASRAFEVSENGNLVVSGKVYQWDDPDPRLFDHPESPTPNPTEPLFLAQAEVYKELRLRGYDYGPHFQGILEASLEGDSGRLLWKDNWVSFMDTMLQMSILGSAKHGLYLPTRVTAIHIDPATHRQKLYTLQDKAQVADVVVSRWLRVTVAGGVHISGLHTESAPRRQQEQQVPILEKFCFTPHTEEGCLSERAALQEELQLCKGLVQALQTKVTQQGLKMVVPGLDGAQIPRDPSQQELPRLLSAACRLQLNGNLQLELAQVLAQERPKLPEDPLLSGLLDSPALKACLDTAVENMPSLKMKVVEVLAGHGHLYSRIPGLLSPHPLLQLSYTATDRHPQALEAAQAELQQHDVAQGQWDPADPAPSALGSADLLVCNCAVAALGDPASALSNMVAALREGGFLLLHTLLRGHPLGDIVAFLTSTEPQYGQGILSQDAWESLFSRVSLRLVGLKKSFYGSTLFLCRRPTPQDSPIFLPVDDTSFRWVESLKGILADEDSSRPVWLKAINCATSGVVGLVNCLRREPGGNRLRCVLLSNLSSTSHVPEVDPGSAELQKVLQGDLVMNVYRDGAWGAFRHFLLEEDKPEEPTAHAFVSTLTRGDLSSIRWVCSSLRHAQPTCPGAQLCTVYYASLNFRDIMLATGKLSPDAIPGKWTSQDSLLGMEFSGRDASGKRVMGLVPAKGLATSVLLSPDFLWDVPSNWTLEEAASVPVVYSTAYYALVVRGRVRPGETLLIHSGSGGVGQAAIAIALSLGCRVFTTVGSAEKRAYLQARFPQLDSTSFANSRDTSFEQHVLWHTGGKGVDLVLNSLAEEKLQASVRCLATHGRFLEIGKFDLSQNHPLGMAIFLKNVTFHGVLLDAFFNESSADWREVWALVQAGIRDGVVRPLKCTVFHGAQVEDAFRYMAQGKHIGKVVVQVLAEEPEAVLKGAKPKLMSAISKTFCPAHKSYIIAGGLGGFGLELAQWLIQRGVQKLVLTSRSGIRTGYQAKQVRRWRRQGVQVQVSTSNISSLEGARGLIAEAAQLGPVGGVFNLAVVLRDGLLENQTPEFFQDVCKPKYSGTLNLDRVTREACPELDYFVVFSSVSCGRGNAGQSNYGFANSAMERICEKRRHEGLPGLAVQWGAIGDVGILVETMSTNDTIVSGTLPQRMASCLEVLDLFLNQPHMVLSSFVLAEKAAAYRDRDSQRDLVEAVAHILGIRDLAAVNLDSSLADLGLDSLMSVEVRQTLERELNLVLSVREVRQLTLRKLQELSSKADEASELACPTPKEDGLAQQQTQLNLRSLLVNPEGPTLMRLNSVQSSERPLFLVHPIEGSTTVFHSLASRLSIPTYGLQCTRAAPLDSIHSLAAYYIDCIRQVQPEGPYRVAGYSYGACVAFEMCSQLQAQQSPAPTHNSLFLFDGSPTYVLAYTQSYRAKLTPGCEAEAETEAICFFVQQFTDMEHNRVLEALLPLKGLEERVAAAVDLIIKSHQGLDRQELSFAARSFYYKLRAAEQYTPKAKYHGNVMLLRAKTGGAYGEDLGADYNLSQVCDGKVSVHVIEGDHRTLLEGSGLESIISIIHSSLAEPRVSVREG
RUN_DESCRIPTION: Spectrophotometric fatty acid synthase assay (NADPH oxidation at 340 nm)
Assay type: biochemical
ASSAY_CONTEXT: for the substrate malonyl-CoA; Dixon plot; enzyme purified from ZR-75-1; read-out: apparent Ki
ASSAY_ENDPOINT: pKi
Recall that pKi is obtained by taking minus log10 of the concentration measured in molar.

Looking up C/C=C/C/C=C/CCC(=O)[C@H]1O[C@H]1C(N)=O , I found its pKi recorded as 4.49
